pIC50: −log10 of the molar value.
Measurement record for Protein arginine N-methyltransferase 5 (Homo sapiens, UniProt O14744); quantity recorded: pIC50.

{"compound": "O=C(c1cc(NC2CCOCC2)ncn1)N1CC[C@H](O)[C@@H](N2CCc3ccccc3C2)CC1 (relative stereo)", "pIC50": "> 7.00"}
{"compound": "CC(=O)N1CCC(Nc2cc(C(=O)N3CC[C@@H](N4CCc5ccccc5C4)[C@H](O)C3)nc(-c3cn[nH]c3)n2)CC1", "pIC50": "> 7.00"}
{"compound": "CO[C@H]1C[C@@H](Nc2cc(C(=O)N3CC[C@@H](N4CCc5ccccc5C4)[C@H](O)C3)nc(-c3ccccc3)n2)C1", "pIC50": "> 7.00"}
